So I've got a bunch of compounds here, and I need their pIC50 values.
Biological target: H1047R PIK3CA enzyme (Homo sapiens, UniProt P42336, H1047R)
Sequence (P42336 whole entry H1047R): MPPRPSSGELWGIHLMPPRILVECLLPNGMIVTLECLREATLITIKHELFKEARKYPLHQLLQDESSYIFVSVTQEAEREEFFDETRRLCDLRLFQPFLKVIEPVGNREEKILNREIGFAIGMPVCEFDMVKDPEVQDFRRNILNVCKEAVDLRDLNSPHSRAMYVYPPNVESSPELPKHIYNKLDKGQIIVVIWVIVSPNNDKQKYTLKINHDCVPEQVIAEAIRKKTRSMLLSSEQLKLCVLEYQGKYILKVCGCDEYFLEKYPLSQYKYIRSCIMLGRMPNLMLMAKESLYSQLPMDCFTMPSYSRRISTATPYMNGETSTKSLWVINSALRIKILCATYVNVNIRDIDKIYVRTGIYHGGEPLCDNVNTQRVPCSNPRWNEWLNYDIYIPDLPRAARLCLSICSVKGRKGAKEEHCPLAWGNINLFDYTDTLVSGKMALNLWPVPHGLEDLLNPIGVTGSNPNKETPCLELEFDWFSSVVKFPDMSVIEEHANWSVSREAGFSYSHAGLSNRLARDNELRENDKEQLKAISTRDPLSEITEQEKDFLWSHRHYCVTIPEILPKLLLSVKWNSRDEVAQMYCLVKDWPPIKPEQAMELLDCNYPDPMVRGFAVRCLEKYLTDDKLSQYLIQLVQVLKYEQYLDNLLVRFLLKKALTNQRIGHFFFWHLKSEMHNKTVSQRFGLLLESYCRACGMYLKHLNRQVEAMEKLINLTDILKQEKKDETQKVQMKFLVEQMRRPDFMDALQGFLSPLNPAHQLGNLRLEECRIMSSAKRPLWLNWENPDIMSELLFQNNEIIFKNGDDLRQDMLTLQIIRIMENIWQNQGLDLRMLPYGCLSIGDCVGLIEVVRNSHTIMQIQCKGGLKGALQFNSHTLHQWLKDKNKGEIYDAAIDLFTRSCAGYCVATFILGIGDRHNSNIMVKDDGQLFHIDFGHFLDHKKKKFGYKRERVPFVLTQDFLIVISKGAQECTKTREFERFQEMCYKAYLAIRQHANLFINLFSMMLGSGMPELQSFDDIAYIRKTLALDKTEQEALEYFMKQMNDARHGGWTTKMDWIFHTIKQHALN
Sequence (P27986 whole entry partner): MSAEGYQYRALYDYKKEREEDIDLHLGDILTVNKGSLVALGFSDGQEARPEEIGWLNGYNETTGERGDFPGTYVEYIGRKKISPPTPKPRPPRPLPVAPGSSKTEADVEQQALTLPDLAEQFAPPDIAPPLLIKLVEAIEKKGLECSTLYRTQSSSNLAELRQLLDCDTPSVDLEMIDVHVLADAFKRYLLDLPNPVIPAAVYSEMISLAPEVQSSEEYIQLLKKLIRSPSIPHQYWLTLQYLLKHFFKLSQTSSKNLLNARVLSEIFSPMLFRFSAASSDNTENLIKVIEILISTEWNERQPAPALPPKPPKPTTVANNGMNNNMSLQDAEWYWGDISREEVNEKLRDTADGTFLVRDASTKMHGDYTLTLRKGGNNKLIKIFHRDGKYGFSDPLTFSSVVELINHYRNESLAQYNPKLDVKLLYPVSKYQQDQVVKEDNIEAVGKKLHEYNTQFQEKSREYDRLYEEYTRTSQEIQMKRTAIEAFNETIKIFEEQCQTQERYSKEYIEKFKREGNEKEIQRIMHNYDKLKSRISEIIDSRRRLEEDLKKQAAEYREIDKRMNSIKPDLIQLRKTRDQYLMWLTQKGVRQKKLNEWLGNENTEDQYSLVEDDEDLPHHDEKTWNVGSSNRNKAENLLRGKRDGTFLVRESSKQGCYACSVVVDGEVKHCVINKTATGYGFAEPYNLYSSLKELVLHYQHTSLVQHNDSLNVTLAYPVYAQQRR
Assay: ADP-Glo Biochemical PIK3CA Kinase Assay
pIC50: −log10 of the molar value.

O=C(Nc1cc(Br)cc2c1C(c1cc(F)ccc1Cl)NC2=O)c1cc(Cl)c(Cl)s1 (stereo not shown): 6.00 to 6.30
CC(C)(C)OC(=O)NCCSc1cc(NC(=O)c2cc(F)cc(C(F)(F)F)c2)c2c(c1)C(=O)NC2c1cc(F)ccc1Cl (stereo not shown): 6.30 to 7.00
O=C1N[C@@H](c2cc(F)ccc2Cl)c2c(NC(=O)N3C[C@@H](O)c4ccccc43)cc(Br)cc21 (single isomer, unassigned): ≥ 7.00
O=C1N[C@@H](c2cc(F)ccc2Cl)c2c(NC(=O)N3C[C@@](O)(C(F)(F)F)c4cc(F)ccc43)ccnc21 (single isomer, unassigned): 5.00 to 6.00
COc1ncc2c(c1NC(=O)c1cc(F)cc(C(F)(F)F)c1)C(c1ccccc1Cl)NC2=O (stereo not shown): 4.00 to 5.00

I would be grateful if you could provide pIC50 for each of the following entries.
1. CCOc1cc(C(=O)Nc2cc(Br)cc3c2C(c2cc(F)ccc2Cl)NC3=O)ccc1F (stereo not shown)
2. CC(=O)Cc1cc(NC(=O)c2cc(F)cc(C(F)(F)F)c2)c2c(c1)C(=O)N[C@@H]2c1cc(F)ccc1Cl

Key:
["5.00 to 6.00", "≥ 7.00"]

I would be grateful if you could provide pIC50 for each of the following entries.
1. O=C(Nc1cc(C#CC2COC2)cc2c1C(c1cc(F)ccc1Cl)NC2=O)c1cc(F)cc(C(F)(F)F)c1 (stereo not shown)
2. CN1CCCC(C(=O)Nc2cc(-c3ccc4ncnn4c3)cc3c2C(c2cc(F)ccc2Cl)NC3=O)C1 (stereo not shown)
3. O=C1N[C@H](c2cc(F)ccc2Cl)c2c(NC(=O)N3C[C@](O)(CO)c4ccccc43)cccc21
4. CN(C)c1cc(NC(=O)N2C[C@@](O)(C(F)(F)F)c3cc(F)ccc32)c2c(n1)C(=O)N[C@@H]2c1cc(F)ccc1Cl (single isomer, unassigned)
5. O=C(Nc1cc(Br)cc2c1C(c1cc(F)ccc1Cl)NC2=O)c1cccc(Cl)c1 (stereo not shown)
6. O=C1N[C@H](c2cc(F)ccc2Cl)c2c(NC(=O)[C@H]3CCC[C@@H](OC(F)(F)F)C3)cccc21 (single isomer, unassigned)

Key:
1. ≥ 7.00
2. 5.00 to 6.00
3. 4.00 to 5.00
4. 4.00 to 5.00
5. 6.00 to 6.30
6. 4.00 to 5.00

###

Biological target: H1047R PIK3CA enzyme (Homo sapiens, UniProt P42336, H1047R)
Assay: ADP-Glo Biochemical PIK3CA Kinase Assay
pIC50: −log10 of the molar value.
Measured Quantity: pIC50

O=C(Nc1cc(-c2ccc3ncc(F)n3c2)cc2c1C(c1cc(F)ccc1Cl)NC2=O)c1cc(F)cc(C(F)(F)F)c1 (stereo not shown) [Compound I-1793]: ≥ 7.00
O=C1N[C@H](c2cc(F)ccc2Cl)c2c(NC(=O)[C@@H]3CC[C@H](O)C3)cc(Br)cc21 (single isomer, unassigned) [Compound I-2105]: 4.00 to 5.00
O=C(Nc1cc(Br)cc2c1[C@@H](c1ccc(F)cc1Cl)NC2=O)c1cc(F)cc(C(F)(F)F)c1 [Compound I-754]: 5.00 to 6.00
O=Cc1cc(NC(=O)c2cc(F)cc(C(F)(F)F)c2)c2c(c1)C(=O)NC2c1cc(F)ccc1Cl (stereo not shown) [Compound I-333]: ≥ 7.00
O=C(Nc1cc(Br)cc2c1C(c1cc(F)ccc1Cl)NC2=O)c1ccc(Cl)c(C(F)(F)F)c1 (stereo not shown) [Compound I-952]: 6.30 to 7.00

I would be grateful if you could provide pIC50 for each of the following entries.
1. O=C(Nc1cc(CC(O)CO)cc2c1C(c1cc(F)ccc1Cl)NC2=O)c1cc(F)cc(C(F)(F)F)c1 (stereo not shown) [Compound I-1376]
2. O=C(Nc1cc(OCC2CC2)cc2c1C(c1cc(F)ccc1Cl)NC2=O)c1cc(F)cc(C(F)(F)F)c1 (stereo not shown) [Compound I-2134]
3. O=C(Nc1cc(-c2cccnc2)nc2c1C(c1cc(F)ccc1Cl)NC2=O)c1cc(F)cc(Cl)c1 (stereo not shown) [Compound I-455]
4. O=C(Nc1cc(Cc2ccc3c(c2)CNC3=O)cc2c1[C@@H](c1cc(F)ccc1Cl)NC2=O)c1cc(F)cc(C(F)(F)F)c1 (stereo in doubt) [Compound I-1613]

Key:
1. ≥ 7.00
2. 6.30 to 7.00
3. 6.30 to 7.00
4. 6.30 to 7.00

###

Molecular target: H1047R PIK3CA enzyme (Homo sapiens, UniProt P42336, H1047R)
Experiment: ADP-Glo Biochemical PIK3CA Kinase Assay
So I've got a bunch of compounds here, and I need their IC50 values.

Cc1ccccc1C1NC(=O)c2cc(-c3cnn(C)c3)cc(NC(=O)c3csc4ccccc34)c21 (stereo not drawn) [Compound I-115]: ≤ 100 nM
CC1(C(=O)Nc2cc(Br)cc3c2C(c2cc(F)ccc2Cl)NC3=O)CCCc2ccccc21 (stereo not drawn) [Compound I-634]: 1000 to 10000 nM
O=C1N[C@@H](c2cc(F)ccc2Cl)c2c(NC(=O)N3C[C@](O)(C(F)(F)F)c4cc(F)ccc43)ccc(-n3ccnn3)c21 (single isomer, unassigned) [Compound I-2520]: ≤ 100 nM
N#Cc1c(-c2cc(NC(=O)c3cc(F)cc(Cl)c3)c3c(c2)C(=O)N[C@@H]3c2cc(F)ccc2Cl)ccc2ncnn12 [Compound I-2064]: ≤ 100 nM
CCC[C@]1(O)CN(C(=O)Nc2cccc3c2[C@H](c2cc(F)ccc2Cl)NC3=O)c2ccc(F)cc21 (single isomer, unassigned) [Compound I-2458]: 1000 to 10000 nM

Next compound, IC50 to be filled in.
// IC50 value for O=C1NC(c2cc(F)ccc2Cl)c2c(N/C(=N\O)c3cc(F)cc(C(F)(F)F)c3)cccc21 (stereo not drawn) [Compound I-1100] : ≤ 100 nM

###

So I've got a bunch of molecules here, and I need their IC50 values.
Target: H1047R PIK3CA enzyme (Homo sapiens, UniProt P42336, H1047R)
Experiment: ADP-Glo Biochemical PIK3CA Kinase Assay
Protocol: Compounds to be assayed were plated in 16 doses of 1:2 serial dilutions (20 nL volume each well) on a 1536-well plate, and the plate warmed to room temperature. […] To the well was added 1 μL of 200 μM ATP and 20 μM of diC8-PIP2 in Substrate Assay Buffer (50 mM HEPES pH7.4, 50 mM NaCl, 5 mM DTT and 0.03% CHAPS) to start the reaction, and the plate was shaken for 10 seconds, then spun briefly at 1500 rpm, and then incubated for 60 minutes at room temperature. […]

Observe how each entry below is paired with its result.
O=C(Nc1cc(C(O)COCCO)cc2c1C(c1cc(F)ccc1Cl)NC2=O)c1cc(F)cc(C(F)(F)F)c1 (stereo not drawn): 100 to 500 nM
O=C(Nc1cccc2c1[C@H](c1cc(F)ccc1Cl)NC2=O)c1cc(F)cc(C(F)(F)F)c1: ≤ 100 nM
O=C(Nc1cccc2c1C(C1(O)CCCCC1)NC2=O)c1cc(F)cc(C(F)(F)F)c1 (stereo not drawn): 10000 to 100000 nM
O=C(Nc1cc(NC2COC2)cc2c1[C@@H](c1cc(F)ccc1Cl)NC2=O)c1cc(F)cc(C(F)(F)F)c1: 1000 to 10000 nM
CN1CCO/C1=N\c1cc(NC(=O)c2cc(F)cc(C(F)(F)F)c2)c2c(c1)C(=O)NC2c1cc(F)ccc1Cl (stereo not drawn): 100 to 500 nM

I would be grateful if you could provide IC50 for each of the following entries.
1. O=C(Nc1cc(Br)cc2c1C(c1cc(F)ccc1Cl)NC2=O)c1ccc(F)c(Cl)c1 (stereo not drawn)
2. Cc1cc(=O)[nH]cc1C(=O)Nc1cc(Br)cc2c1[C@H](c1cc(F)ccc1Cl)NC2=O
3. O=C(Nc1cc(-c2ccc3ncnn3c2)cc2c1C(c1cc(F)ccc1C(F)F)NC2=O)c1cc(F)cc(C(F)(F)F)c1 (stereo not drawn)
4. COc1ccc2c(c1)N(C(=O)Nc1cccc3c1C(c1cc(F)ccc1Cl)NC3=O)CC2 (stereo not drawn)
5. O=C1N[C@H](c2cccc(F)c2F)c2c(NC(=O)c3csc4ccccc34)ccnc21
6. O=C(Nc1cc(-c2ccc3ncnn3c2)cc2c1[C@@H](c1cc(F)ccc1Cl)NC2=O)c1cc(F)cc(OC(F)F)c1 (stereo in doubt)
7. Cc1ccccc1C1NC(=O)c2cc(Br)cc(NC(=O)c3csc4ccccc34)c21 (stereo not drawn)

Key:
500 to 1000 nM
10000 to 100000 nM
≤ 100 nM
1000 to 10000 nM
1000 to 10000 nM
10000 to 100000 nM
≤ 100 nM

I would be grateful if you could provide IC50 for each of the following entries.
1. COCCNc1cc(NC(=O)c2cc(F)cc(C(F)(F)F)c2)c2c(n1)C(=O)NC2c1cc(F)ccc1Cl (stereo not drawn)
2. COc1cc(C(=O)Nc2cc(Br)cc3c2C(c2cc(F)ccc2C(F)F)NC3=O)cc(F)c1F (stereo not drawn)
3. O=C1NC(c2cc(F)ccc2Cl)c2c(NC(=O)C34CC5CC(C3)CC(C(F)(F)F)(C5)C4)cccc21 (stereo not drawn)
4. O=C(Nc1cc(-c2ccnc(C(F)F)c2)cc2c1C(c1cc(F)ccc1Cl)NC2=O)c1cc(F)cc(C(F)(F)F)c1 (stereo not drawn)
5. C[C@H](CCC(F)(F)F)C(=O)Nc1cccc2c1[C@H](c1cc(F)ccc1Cl)NC2=O
6. Nc1cc(NC(=O)N2C[C@H](O)c3ccccc32)c2c(c1)C(=O)N[C@@H]2c1cc(F)ccc1Cl (single isomer, unassigned)

Key:
100 to 500 nM
100 to 500 nM
≤ 100 nM
≤ 100 nM
10000 to 100000 nM
1000 to 10000 nM

I would be grateful if you could provide IC50 for each of the following entries.
1. O=C1N[C@@H](c2cc(F)ccc2Cl)c2c(NC(=O)N3C[C@@H](O)c4cc(F)ccc43)cc(Cl)cc21 (single isomer, unassigned)
2. O=C1NC(c2cc(F)ccc2Cl)c2ccc(-c3ccc4ncnn4c3)cc21 (stereo not drawn)
3. O=C(Nc1cc(-n2cccn2)cc2c1C(c1cc(F)ccc1Cl)NC2=O)c1cc(F)cc(C(F)(F)F)c1 (stereo not drawn)
4. CC1(Cc2cc(NC(=O)N3C[C@@](O)(C(F)(F)F)c4cc(F)ccc43)c3c(c2)C(=O)N[C@@H]3c2cc(F)ccc2Cl)COC1 (single isomer, unassigned)
5. O=C(Nc1ccccc1)c1cc(-c2ccc3ncnn3c2)cc2c1C(c1cc(F)ccc1Cl)NC2=O (stereo not drawn)

Key:
["10000 to 100000 nM", "10000 to 100000 nM", "≤ 100 nM", "1000 to 10000 nM", "10000 to 100000 nM"]
